system under test: sGC α1/β1 heterodimer stably expressed in CHO-K1 cells (CHO-K1/sGC) (Homo sapiens, UniProt Q02108+Q02153)
Construct: expressed in transfected cells
Sequence (Q02108 whole entry): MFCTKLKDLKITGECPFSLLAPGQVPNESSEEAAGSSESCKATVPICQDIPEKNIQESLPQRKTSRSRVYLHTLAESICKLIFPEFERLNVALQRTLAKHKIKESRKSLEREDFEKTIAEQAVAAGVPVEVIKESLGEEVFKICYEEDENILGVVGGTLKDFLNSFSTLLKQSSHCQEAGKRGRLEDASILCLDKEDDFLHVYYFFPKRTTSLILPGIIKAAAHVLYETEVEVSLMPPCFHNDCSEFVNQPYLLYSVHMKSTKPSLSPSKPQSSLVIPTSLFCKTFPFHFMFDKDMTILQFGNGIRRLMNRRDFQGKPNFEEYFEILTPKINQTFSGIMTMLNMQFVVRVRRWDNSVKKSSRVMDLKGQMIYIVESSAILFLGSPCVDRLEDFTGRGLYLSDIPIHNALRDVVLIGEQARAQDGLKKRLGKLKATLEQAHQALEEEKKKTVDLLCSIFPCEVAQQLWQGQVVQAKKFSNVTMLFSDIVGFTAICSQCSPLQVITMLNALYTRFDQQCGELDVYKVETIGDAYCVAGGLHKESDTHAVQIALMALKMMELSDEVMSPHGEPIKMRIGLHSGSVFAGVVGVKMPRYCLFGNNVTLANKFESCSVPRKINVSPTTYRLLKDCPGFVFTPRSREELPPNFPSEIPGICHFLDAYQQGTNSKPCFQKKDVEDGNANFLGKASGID
Sequence (Q02153 whole entry): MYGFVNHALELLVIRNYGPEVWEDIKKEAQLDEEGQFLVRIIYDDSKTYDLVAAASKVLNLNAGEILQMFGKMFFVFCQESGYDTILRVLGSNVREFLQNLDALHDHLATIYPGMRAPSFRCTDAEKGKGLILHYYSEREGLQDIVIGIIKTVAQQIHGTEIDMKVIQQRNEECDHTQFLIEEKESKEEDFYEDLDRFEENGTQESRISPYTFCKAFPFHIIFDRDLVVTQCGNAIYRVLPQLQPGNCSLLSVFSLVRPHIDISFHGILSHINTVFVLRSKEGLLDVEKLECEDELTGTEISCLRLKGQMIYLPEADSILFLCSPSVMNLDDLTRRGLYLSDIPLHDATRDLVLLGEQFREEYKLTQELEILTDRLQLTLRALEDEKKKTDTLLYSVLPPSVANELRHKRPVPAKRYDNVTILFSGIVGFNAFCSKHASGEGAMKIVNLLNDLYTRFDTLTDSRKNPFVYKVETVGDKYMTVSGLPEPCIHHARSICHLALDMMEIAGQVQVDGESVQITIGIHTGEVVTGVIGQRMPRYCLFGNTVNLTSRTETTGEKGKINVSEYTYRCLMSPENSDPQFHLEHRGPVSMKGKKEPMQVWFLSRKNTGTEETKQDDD
test name: Cell-based sGC functional assay (CASA assay), cGMP generation by HTRF
settings: CHO-K1/sGC cells, 1 hr at 37° C., 4P fit; presence or absence of DETA-NO not given; read-out: IP (nM) (inflection point)
What EC50 was measured for each of the following?
Numbers only here, please. The scale is nM.

Note EC50 for the compound shown: CC1(c2ccc(F)cc2)C(=O)Nc2nc(-c3cn4ccnc4c(OCC(F)(F)C(F)(F)F)n3)nc(N)c21 (stereo not shown) 317

Note EC50 for the compound shown: CC1(c2ccc(F)cc2)C(=O)Nc2nc(-c3cn4cc(C(F)(F)F)nc4c(Oc4cccc(F)c4F)n3)nc(N)c21 (stereo not shown) [Example 37A] 719

Note EC50 for the compound shown: CCC1(CNc2nc(-c3nc(N)c4c(n3)NC(=O)C4(C)c3ccc(F)cc3)cn3ccnc23)CC1 (stereo not shown) [Example 54A] 266

Note EC50 for the compound shown: CC1(c2ccc(Cl)cc2)C(=O)Nc2nc(-c3cn4ccnc4c(OC4CCC(F)(F)CC4)n3)nc(N)c21 (stereo not shown) [Example 28A] 1160

---

system under test: sGC α1/β1 heterodimer stably expressed in CHO-K1 cells (CHO-K1/sGC) (Homo sapiens, UniProt Q02108+Q02153)
Construct: expressed in transfected cells
test name: Cell-based sGC functional assay (CASA assay), cGMP generation by HTRF
settings: CHO-K1, maximum cGMP production of Compound A set to 100% activation; read-out: % Act. (percent activation relative to Compound A)
observed property: Emax (%)
Numbers only here, please. The scale is %.

Note Emax for the compound shown: CC1(c2ccc(F)cc2)C(=O)Nc2nc(-c3cn4ccnc4c(Oc4cncc(C(F)(F)F)c4)n3)nc(N)c21 (stereo not shown) [Example 21A] 137

Note Emax for the compound shown: CC1(c2ccc(Cl)cc2)C(=O)Nc2nc(-c3cn4ccnc4c(OCC4CC(F)(F)C4)n3)nc(N)c21 (stereo not shown) [Example 32A] 129

Note Emax for the compound shown: COCCNc1nc(-c2nc(N)c3c(n2)NC(=O)C3(C)c2ccc(F)cc2)cn2ccnc12 (stereo not shown) [Example 52A] 101

Note Emax for the compound shown: CCCSc1nc(-c2nc(N)c3c(n2)NC(=O)C3(C)c2ccc(F)cc2)cn2ccnc12 (stereo not shown) [Example 62A] 99

Note Emax for the compound shown: CCCC(C)Oc1nc(-c2nc(N)c3c(n2)NC(=O)C3(C)c2ccc(F)cc2)cn2ccnc12 (racemic) [Example 65A] 101

Note Emax for the compound shown: CC1(c2ccc(F)cc2)C(=O)Nc2nc(-c3cn4ccnc4c(OCC4CCCCC4)n3)nc(N)c21 (stereo not shown) [Example 43A] 116

Note Emax for the compound shown: CC1(c2ccccc2)C(=O)Nc2nc(-c3cn4ccnc4c(Oc4cccc(F)c4F)n3)nc(N)c21 (stereo not shown) [Example 13B] 109

---

system under test: sGC α1/β1 heterodimer stably expressed in CHO-K1 cells (CHO-K1/sGC) (Homo sapiens, UniProt Q02108+Q02153)
Construct: expressed in transfected cells
test name: Cell-based sGC functional assay (CASA assay), cGMP generation by HTRF
settings: maximum cGMP production of Compound A set to 100% activation
observed property: % Act. (percent activation relative to Compound A) (%)
Numbers only here, please. The scale is %.

Note % Act. (percent activation relative to Compound A) for the compound shown: CC(Nc1nc(-c2nc(N)c3c(n2)NC(=O)C3(C)c2ccc(Cl)cc2)cn2ccnc12)c1ccccc1 (stereo not drawn) 87

Note % Act. (percent activation relative to Compound A) for the compound shown: CC1(c2ccc(Cl)cc2)C(=O)Nc2nc(-c3cn4ccnc4c(OCC4CCCOC4)n3)nc(N)c21 (single isomer, unassigned; slow eluting) [Example 67B] 94

Note % Act. (percent activation relative to Compound A) for the compound shown: CC1(c2ccc(Cl)cc2)C(=O)Nc2nc(-c3cn4ccnc4c(OCC4CCCCO4)n3)nc(N)c21 (single isomer, unassigned; slow eluting) [Example 68B] 85
